I'd appreciate it if you could supply Ki values for the items below.
SYSTEM: Carbonic anhydrase 9 (Homo sapiens, UniProt Q16790)
EXPERIMENTAL DETAILS: Inhibition of human carbonic anhydrase 9 catalytic domain preincubated for 15 mins by CO2 hydration stopped-flow assay
Could you give me the number in nM? Just the number is fine.

Ki for `COc1ccc(CCNC(=O)S)cc1OC` ?
15.2

Ki for `CCOC(=O)CN(C)C(=O)S` ?
22.1

Ki for `CC(C)CN(CC(C)C)C(=O)S` ?
9.2

Ki for `CN(Cc1ccccc1)C(=O)S` ?
11.7

Ki for `CCCCN(CCCC)C(=O)S` ?
6.8

----------
SYSTEM: Carbonic anhydrase 2 (Homo sapiens)
QUANTITY MEASURED: Ki

// map `O=C(S)N1CCN(c2cccc(Cl)c2)CC1` to recorded Ki (system: Carbonic anhydrase 2 (Homo sapiens))
> 2000 nM

The reported numbers originate from ChEMBL document CHEMBL4425107.
